Kindly supply the reported growth values for the records listed here.
System: MDA-MB-468 breast
METHOD NOTES: NCI-60 one-dose screen, 48 h (100 = growth as untreated, 0 = no growth, -100 = all killed)
EXPERIMENTAL CONTEXT: 10 µM unless noted
This is part of a sample that, as a whole, favours compounds with a hit. Of some 83,000 tested, about 20% had one in any assay.
Respond numerically; units are % and should not be typed.

Prompt: Bench note: what growth did "Cc1cc(NC(=O)c2cccc(C(F)(F)F)c2)ccc1-n1ccc2c(NC(=O)c3ccccc3)nccc21" show?
Completion: 111

Prompt: Bench note: what growth did "Oc1ccc(N=Nc2ccc(Br)cc2)c(O)c1" show?
Completion: 15.4

Prompt: Bench note: what growth did "COc1ccc2c(-c3ccc(F)cc3)c(C#N)c(=NC(C)=O)oc2c1" show?
Completion: -8.32

Prompt: Bench note: what growth did "O=C(Nc1ccc(OCc2ccc(Cl)cc2)cc1)Nc1ccc(Cl)c(C(F)(F)F)c1" show?
Completion: -15.2

Prompt: Bench note: what growth did "O=[N+]([O-])c1c(S(=O)(=O)O)cc2cc(S(=O)(=O)O)ccc2c1[N+](=O)[O-]" show?
Completion: 111

Prompt: Bench note: what growth did COc1cc(C(c2c[nH]c3ccccc23)N2CCCC2)ccc1OCc1ccccc1 (stereo unspecified) show?
Completion: 53.9

Prompt: Bench note: what growth did "NS(=O)(=O)c1ccc(CCN2C(=O)C=CC2=O)cc1" show?
Completion: 103

Prompt: Bench note: what growth did "COc1ccc(/C=C2\COc3ccc(O)cc3C2=O)cc1" show?
Completion: 85.7

Prompt: Bench note: what growth did "COc1cc(/C=C\c2cc(OC)c(OC)c(OC)c2)cc(N/C=C\C(=O)c2c[nH]c3ccccc23)c1OC" show?
Completion: -55.8

Prompt: Bench note: what growth did "O=C1Nc2ccccc2/C1=N/N1C(=O)CN(CCCl)C1=O" show?
Completion: 107

Prompt: Bench note: what growth did "Cn1c2ccccc2c2nn(C(=O)c3ccccc3)c(=O)nc21" show?
Completion: 107

Prompt: Bench note: what growth did COc1ccc(C2c3sc4c(C)cccc4c3Oc3nc(CC(=O)Nc4ccccc4)[nH]c(=O)c32)cc1 (stereo unspecified) show?
Completion: 18.6

Prompt: Bench note: what growth did "COc1cc(C(=O)Nc2cc3c(cc2Oc2cc(C)cc(C)c2)C(=O)N(C)[C@@H](CC(=O)N(C)O)C(=O)N3)c(Br)c(OC)c1OC" show?
Completion: -41.6

Prompt: Bench note: what growth did "Cc1ccc(Cn2c(-c3nonc3N)nc3ccccc32)cc1" show?
Completion: 58.8

Prompt: Bench note: what growth did "CN(C)CCNc1cc(-c2ccccc2)nc2ccccc12" show?
Completion: -33.3

Prompt: Bench note: what growth did CC1CCC(C(C)C)C(NNC(N)=O)C1 (stereo unspecified) show?
Completion: 94.9

Prompt: Bench note: what growth did "CCCCCCCCCCCCC[N+](C)(C)Cc1ccccc1" show?
Completion: -25.3

Prompt: Bench note: what growth did "CS(=O)(=O)N(c1cc(-c2ccc3ncnc(Nc4ccc(F)c(Cl)c4)c3c2)cnc1Cl)S(C)(=O)=O" show?
Completion: -19.6

Prompt: Bench note: what growth did "COc1ccc(/C(=N\O)c2cc(C)c(OC)c(C)c2)cc1O" show?
Completion: 44.4

Prompt: Bench note: what growth did "O=C1C(Cl)=C(SC2=NCCN2)C(=O)c2ccccc21" show?
Completion: 0.366

Prompt: Bench note: what growth did "COc1ccc2c(c1)CC[C@H](O)/C2=C/c1cc(OC)c(OC)c(OC)c1" show?
Completion: 17.6

----------
Test system: MDA-MB-468 breast
METHOD NOTES: NCI-60 one-dose screen, 48 h
EXPERIMENTAL CONTEXT: 10 µM unless noted
This is part of a sample that, as a whole, favours compounds with a hit. Of some 83,000 tested, about 20% had one in any assay. Activity calls are given as the source filed them. How the source made its calls: active means growth percent below 10; inactive means the rest.
Answer with one of the outcomes y = active, n = inactive

Prompt: What call does the record list for "O=S(=O)(Nc1ccc(Cl)cc1)c1ccc(-c2cnc(C3CC3)o2)cc1" ?
Completion: y

Prompt: What call does the record list for COc1ccc(C(=O)C2C(C#N)C(C#N)C3c4ccccc4C=CN23)cc1 (stereo not given) ?
Completion: n

Prompt: What call does the record list for "CN1CCN(Cc2ccc(C(=O)Nc3cncc(C#Cc4cnc5cccnn45)c3)cc2C(F)(F)F)CC1" ?
Completion: n

Prompt: What call does the record list for "Nc1ccccc1NC(=O)c1ccc(CN2CCC/C(=C\c3cccc(Cl)c3)C2=O)cc1" ?
Completion: y

Prompt: What call does the record list for "COc1ccc(C(=O)NCCNc2nccc(-c3c(-c4ccc(F)cc4)nc4sccn34)n2)cc1" ?
Completion: n

----------
System: MDA-MB-468 breast
METHOD NOTES: NCI-60 one-dose screen, 48 h (100 = growth as untreated, 0 = no growth, -100 = all killed)
EXPERIMENTAL CONTEXT: 10 µM unless noted
This is part of a sample that, as a whole, favours compounds with a hit. Of some 83,000 tested, about 20% had one in any assay.
Kindly supply the reported growth values for the records listed here.
Respond numerically; units are % and should not be typed.

Prompt: Bench note: what growth did "C/C(=N/NC(N)=S)c1sc(Nc2cccc(Cl)c2)nc1C" show?
Completion: 47.3

Prompt: Bench note: what growth did "O=S(=O)(NCCNc1nccc(-c2c(-c3cccc(F)c3)nc3sccn23)n1)c1ccccc1" show?
Completion: 43.6

Prompt: Bench note: what growth did "C/C(=N\Nc1cc(C)nc2ccc(Br)cc12)c1ccc([N+](=O)[O-])cc1" show?
Completion: 51.5

Prompt: Bench note: what growth did "CCCCCCOc1ccc(/C=N/Nc2cc(C)nc3ccc(Cl)cc23)cc1" show?
Completion: -56.7

Prompt: Bench note: what growth did "O=C(OCc1ccc2c(Cl)cc(Cl)c(O)c2n1)N1CCN(C(=O)c2cc3cc(F)ccc3[nH]2)CC1" show?
Completion: -5.15

Prompt: Bench note: what growth did "NNC(=O)/C(=C\c1ccc([N+](=O)[O-])cc1)CC(=O)c1ccc(Cl)c(Cl)c1" show?
Completion: 89.2

Prompt: Bench note: what growth did "Cc1c(Nc2nnc(SCC(=O)Nc3sc4c(c3C#N)CCCC4)s2)c(=O)n(-c2ccccc2)n1C" show?
Completion: 107

Prompt: Bench note: what growth did COc1cccc(C(=O)NC(c2ccc(C)cc2)c2cc(Cl)c3cccnc3c2O)c1 (centres undefined) show?
Completion: -8.72

Prompt: Bench note: what growth did "O=c1[nH]ccc2nc(N3CCC(O)CC3)nc(Nc3cccc(C(F)(F)F)c3)c12" show?
Completion: 14.5

----------
Tested on: MDA-MB-468 breast
METHOD NOTES: NCI-60 one-dose screen, 48 h (100 = growth as untreated, 0 = no growth, -100 = all killed)
EXPERIMENTAL CONTEXT: 10 µM unless noted
Description: Growth inhibition of the MDA-MB-468 human Breast tumor cell line is measured as a screen for anti-cancer activity. Cells are grown in 96 well plates and exposed to the test compound for 48 hours. Compounds are tested at a single concentration, which is 10^-5 M for most compounds. The reported endpoint is percent growth (GI% or GIPRCNT), where numbers from 0 - 100% represent growth inhibition, and numbers from -100% - 0 represent cell death. […]
The panel holds about 83,000 compounds, 20% with a hit somewhere; the sample as a whole holds those more often. Calls of active or inactive are those of the source. Rule for the calls: active = growth percent below 10; inactive = the rest.
Kindly supply the reported growth values for the records listed here.

Prompt: Quick check: growth on MDA-MB-468 breast, item "COc1ccc(-n2nc(C(=O)NCC(=O)Nc3nc4cc(OC)ccc4s3)c3ccccc3c2=O)cc1" ?
Completion: -8.37% (active)

Prompt: Quick check: growth on MDA-MB-468 breast, item "CCc1c(C(=O)NCc2c(O)ccc3cccc(O)c23)[nH]c(C)c1C(C)=O" ?
Completion: 18.5% (inactive)

Prompt: Quick check: growth on MDA-MB-468 breast, item "S=C1NCc2cncnc2N1" ?
Completion: 99.7% (inactive)

Prompt: Quick check: growth on MDA-MB-468 breast, item "CCN(CC)CCOC(=O)Nc1c(C(C)C)cccc1C(C)C" ?
Completion: 97.3% (inactive)

Prompt: Quick check: growth on MDA-MB-468 breast, item "CC1(C)CC[C@]23CC[C@]4(C)[C@H](CC[C@@H]5[C@@]6(C)CC[C@H](N)C(C)(C)[C@@H]6CC[C@]54C)[C@H]2[C@H]1OC3" ?
Completion: 0.703% (active)

----------
System: MDA-MB-468 breast
METHOD NOTES: NCI-60 one-dose screen, 48 h
EXPERIMENTAL CONTEXT: 10 µM unless noted
Description: Growth inhibition of the MDA-MB-468 human Breast tumor cell line is measured as a screen for anti-cancer activity. Cells are grown in 96 well plates and exposed to the test compound for 48 hours. Compounds are tested at a single concentration, which is 10^-5 M for most compounds. The reported endpoint is percent growth (GI% or GIPRCNT), where numbers from 0 - 100% represent growth inhibition, and numbers from -100% - 0 represent cell death. […]
This is part of a sample that, as a whole, favours compounds with a hit. Of some 83,000 tested, about 20% had one in any assay. Calls of active or inactive are those of the source. The calls were made as follows: active = growth percent below 10; inactive = the rest.
Answer with one of the outcomes active, inactive

Prompt: What call does the record list for "CCOC(=O)N1C2CCC(C2)N1C(=O)OCC" ?
Completion: inactive

Prompt: What call does the record list for "CCOC(=O)c1sc(-c2ccc(OS(=O)(=O)c3ccc(Br)s3)c(C=O)c2)nc1C" ?
Completion: inactive

Prompt: What call does the record list for "c1ccc2c(NCCCN3CCN(CCCNc4c5ccccc5nc5ccccc45)CC3)c3ccccc3nc2c1" ?
Completion: active

Prompt: What call does the record list for "CNC(=O)c1cc(Oc2ccc3nc(NC(=O)c4ccc(CN5CCN(C)CC5)c(C(F)(F)F)c4)sc3c2)ccn1" ?
Completion: inactive

Prompt: What call does the record list for CC(Br)c1nc2ccccc2cc1C(N)=O (stereo not given) ?
Completion: inactive

Prompt: What call does the record list for "O=C1c2ccccc2C(=O)N1/N=C/c1ccc2c(c1)OCO2" ?
Completion: inactive

Prompt: What call does the record list for "CC(=O)[C@@]1(O)CC[C@H]2[C@@H]3CC[C@@H]4CC(=O)CC[C@]4(C)[C@H]3[C@@H](O)C[C@@]21C" ?
Completion: inactive

Prompt: What call does the record list for "COC(=O)CC1=C(c2ccc([N+](=O)[O-])cc2)CCC1=O" ?
Completion: inactive

Prompt: What call does the record list for CC(C)(C)NC(C1=CC(C)(C)c2ccccc2C1=O)c1ccccc1 (stereo not given) ?
Completion: active

Prompt: What call does the record list for "O=S(=O)(NCCNc1nccc(-c2c(-c3cccc(F)c3)nc3occn23)n1)c1ccc(C(F)(F)F)cc1" ?
Completion: inactive
